// data source = paper PMC3983244

Biological target: T1, ClpX(E185Q) (E. coli, UniProt P0A6H1 1-424, E185Q)
T1 construct: ClpX, Escherichia coli, ATP hydrolysis defective mutant E185Q; Concentrations are reported for ClpX hexamers; also called ATP hydrolysis defective mutant of ClpX
Assay: co-sedimentation; 250 pmol FtsZ wild type or mutant polymerised with 2 mM GTP in assembly buffer (50 mM MES pH 6.5, 50 mM KCl, 10 mM MgCl2) with acetate kinase and acetyl phosphate; 1.5, 5.0 or 12.5 pmol ClpX(E185Q) and 4 mM ATP added, 25 µl, 10 min; 129,000×g 30 min; SDS-PAGE, Coomassie, densitometry; background without GTP subtracted
Details: both partners purified
OBSERVED_PROPERTY: binding result

FtsZ(352AAA, Δ375-383) (domain or fragment, E. coli, UniProt P0A9A6 1-374, looked up, also called double mutant; source: E. coli BL21 (λDE3), purified like wild type FtsZ) MFEPMELTNDAVIKVIGVGGGGGNAVEHMVRERIEGVEFFAVNTDAQALRKTAVGQTIQIGSGITKGLGAGANPEVGRNAADEDRDALRAALEGADMVFIAAGMGGGTGTGAAPVVAEVAKDLGILTVAVVTKPFNFEGKKRMAFAEQGITELSKHVDSLITIPNDKLLKVLGRGISLLDAFGAANDVLKGAVQGIAELITRPGLMNVDFADVRTVMSEMGYAMMGSGVASGEDRAEEAAEMAISSPLLEDIDLSGARGVLVNITAGFDLRLDEFETVGNTIRAFASDNATVVIGTSLDPDMNDELRVTVVATGIGMDKRPEITLVTNKQVQQPVMDRYQQHGMAPLTQEQAAAAKVVNDNAPQTAKEPDYLDI | binds
FtsZ(356AAA) (natural protein, E. coli, UniProt P0A9A6 1-383, looked up, source: E. coli BL21 (λDE3), purified like wild type FtsZ) MFEPMELTNDAVIKVIGVGGGGGNAVEHMVRERIEGVEFFAVNTDAQALRKTAVGQTIQIGSGITKGLGAGANPEVGRNAADEDRDALRAALEGADMVFIAAGMGGGTGTGAAPVVAEVAKDLGILTVAVVTKPFNFEGKKRMAFAEQGITELSKHVDSLITIPNDKLLKVLGRGISLLDAFGAANDVLKGAVQGIAELITRPGLMNVDFADVRTVMSEMGYAMMGSGVASGEDRAEEAAEMAISSPLLEDIDLSGARGVLVNITAGFDLRLDEFETVGNTIRAFASDNATVVIGTSLDPDMNDELRVTVVATGIGMDKRPEITLVTNKQVQQPVMDRYQQHGMAPLTQEQKPVAAAANDNAPQTAKEPDYLDIPAFLRKQAD | binds
FtsZ(352AAA) (natural protein, E. coli, UniProt P0A9A6 1-383, looked up, source: E. coli BL21 (λDE3), purified like wild type FtsZ) MFEPMELTNDAVIKVIGVGGGGGNAVEHMVRERIEGVEFFAVNTDAQALRKTAVGQTIQIGSGITKGLGAGANPEVGRNAADEDRDALRAALEGADMVFIAAGMGGGTGTGAAPVVAEVAKDLGILTVAVVTKPFNFEGKKRMAFAEQGITELSKHVDSLITIPNDKLLKVLGRGISLLDAFGAANDVLKGAVQGIAELITRPGLMNVDFADVRTVMSEMGYAMMGSGVASGEDRAEEAAEMAISSPLLEDIDLSGARGVLVNITAGFDLRLDEFETVGNTIRAFASDNATVVIGTSLDPDMNDELRVTVVATGIGMDKRPEITLVTNKQVQQPVMDRYQQHGMAPLTQEQAAAAKVVNDNAPQTAKEPDYLDIPAFLRKQAD | binds
